- System: HER2-positive breast cancer cell line BT474
- assay.protocol: MTS cell viability assay, BT474
- Format: cell-based
- experimental.conditions: Homo sapiens, BT-474; BT474; 72 hours; MTS
readout.label: pIC50
Give only the number. pIC50 is defined as minus log10 of concentration in molar units.

Q) Under HER2-positive breast cancer cell line BT474: pIC50 value of "COC(=O)Nc1nc2cc(Sc3ccc(N4CCN(C)CC4)cc3)ccc2[nH]1" ?
A) 5.66

Recorded values, source patent US20230391753A1.
